meta.source: patent US20240343803A1

Parameter: IC50. Scope: all listed entries.
- Study target: T1, Fusion protein of extracellular domain of human TIGIT and human IgG1 Fc fragment (human TIGIT ECD-hFc) (human)
- T1 construct: The entry includes the signal peptide (limits not recoverable) and the human IgG1 Fc
- T1 sequence (chain, as listed by the source limits assumed): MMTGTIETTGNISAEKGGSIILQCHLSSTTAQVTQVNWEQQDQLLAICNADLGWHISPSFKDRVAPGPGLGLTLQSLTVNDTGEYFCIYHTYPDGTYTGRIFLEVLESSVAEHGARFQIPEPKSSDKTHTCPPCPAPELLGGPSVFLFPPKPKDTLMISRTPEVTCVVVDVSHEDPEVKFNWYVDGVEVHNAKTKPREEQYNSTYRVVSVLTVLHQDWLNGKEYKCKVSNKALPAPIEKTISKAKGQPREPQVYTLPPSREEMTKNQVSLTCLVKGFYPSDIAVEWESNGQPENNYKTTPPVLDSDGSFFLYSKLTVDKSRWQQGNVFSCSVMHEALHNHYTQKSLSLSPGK
- Run description: blocking of TIGIT ECD-hFc binding to CHO-K1 CD155 cells

TIGIT-005-H2L1c (antibody, V domains shown, Humanized anti-TIGIT antibody with NG-site mutation in VL) VH: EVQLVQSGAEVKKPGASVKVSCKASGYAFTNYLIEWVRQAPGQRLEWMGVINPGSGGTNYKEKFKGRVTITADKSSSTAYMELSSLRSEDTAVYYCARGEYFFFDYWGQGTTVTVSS VL: DIVMTQSPDSLAVSLGERATINCKASQHVSDGVAWYQHKPGQSPKLLIYSASYRYTGVPDRFSGSGSGTDFTLTISSLQAEDVAVYYCQQHYNTPHTFGGGTKVEIK = 0.347 nM
TIGIT-070-H1L1 (antibody, V domains shown, Humanized anti-TIGIT antibody) VH: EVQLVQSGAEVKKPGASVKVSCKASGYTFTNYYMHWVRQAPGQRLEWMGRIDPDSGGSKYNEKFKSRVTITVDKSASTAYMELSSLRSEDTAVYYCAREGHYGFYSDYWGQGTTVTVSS VL: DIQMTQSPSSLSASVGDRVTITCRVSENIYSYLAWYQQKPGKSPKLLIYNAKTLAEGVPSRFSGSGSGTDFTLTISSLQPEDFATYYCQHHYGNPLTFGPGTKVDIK = 0.502 nM

[in] Query: IC50; subject: TIGIT-002-H4L2 (antibody, V domains shown, Humanized anti-TIGIT antibody) VH: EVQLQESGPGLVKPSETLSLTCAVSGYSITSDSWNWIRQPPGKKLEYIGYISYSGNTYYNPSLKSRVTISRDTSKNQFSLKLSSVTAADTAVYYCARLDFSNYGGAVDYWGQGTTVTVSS VL: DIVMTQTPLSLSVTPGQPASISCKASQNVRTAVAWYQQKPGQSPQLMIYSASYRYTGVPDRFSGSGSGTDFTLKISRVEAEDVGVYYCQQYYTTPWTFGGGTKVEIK
[out] 0.44 nM
